measured-on: 5P+V
experimental-details: luminescence complementation
Provide the reported pKd of each item.
One number for each entry, as −log10 of the molar value.

Check out these entries, answers already filled in.
binder	pKd
Ac-SGWRLFKKISN-NH2 [NLpep81]	6.82
Ac-GWRLFKKISN-NH2 [NLpep82]	6.89

Field: next binder
Item: Ac-VSGWRLFKKISN-NH2 [NLpep80] | pKd: 7.99
